Cited source: IntAct's records for PubMed 30190310

B1: Kelch-like protein 12 (Homo sapiens), Q53G59 (parent)
chain: MGGIMAPKDIMTNTHAKSILNSMNSLRKSNTLCDVTLRVEQKDFPAHRIVLAACSDYFCAMFTSELSEKGKPYVDIQGLTASTMEILLDFVYTETVHVTVENVQELLPAACLLQLKGVKQACCEFLESQLDPSNCLGIRDFAETHNCVDLMQAAEVFSQKHFPEVVQHEEFILLSQGEVEKLIKCDEIQVDSEEPVFEAVINWVKHAKKEREESLPNLLQYVRMPLLTPRYITDVIDAEPFIRCSLQCRDLVDEAKKFHLRPELRSQMQGPRTRARLGANEVLLVVGGFGSQQSPIDVVEKYDPKTQEWSFLPSITRKRRYVASVSLHDRIYVIGGYDGRSRLSSVECLDYTADEDGVWYSVAPMNVRRGLAGATTLGDMIYVSGGFDGSRRHTSMERYDPNIDQWSMLGDMQTAREGAGLVVASGVIYCLGGYDGLNILNSVEKYDPHTGHWTNVTPMATKRSGAGVALLNDHIYVVGGFDGTAHLSSVEAYNIRTDSWTTVTSMTTPRCYVGATVLRGRLYAIAGYDGNSLLSSIECYDPIIDSWEVVTSMGTQRCDAGVCVLREK

- Variants of: B1
- Cond: with fxl17_human FBXL17, Q9UF56
- Sequence (Q9UF56 whole entry): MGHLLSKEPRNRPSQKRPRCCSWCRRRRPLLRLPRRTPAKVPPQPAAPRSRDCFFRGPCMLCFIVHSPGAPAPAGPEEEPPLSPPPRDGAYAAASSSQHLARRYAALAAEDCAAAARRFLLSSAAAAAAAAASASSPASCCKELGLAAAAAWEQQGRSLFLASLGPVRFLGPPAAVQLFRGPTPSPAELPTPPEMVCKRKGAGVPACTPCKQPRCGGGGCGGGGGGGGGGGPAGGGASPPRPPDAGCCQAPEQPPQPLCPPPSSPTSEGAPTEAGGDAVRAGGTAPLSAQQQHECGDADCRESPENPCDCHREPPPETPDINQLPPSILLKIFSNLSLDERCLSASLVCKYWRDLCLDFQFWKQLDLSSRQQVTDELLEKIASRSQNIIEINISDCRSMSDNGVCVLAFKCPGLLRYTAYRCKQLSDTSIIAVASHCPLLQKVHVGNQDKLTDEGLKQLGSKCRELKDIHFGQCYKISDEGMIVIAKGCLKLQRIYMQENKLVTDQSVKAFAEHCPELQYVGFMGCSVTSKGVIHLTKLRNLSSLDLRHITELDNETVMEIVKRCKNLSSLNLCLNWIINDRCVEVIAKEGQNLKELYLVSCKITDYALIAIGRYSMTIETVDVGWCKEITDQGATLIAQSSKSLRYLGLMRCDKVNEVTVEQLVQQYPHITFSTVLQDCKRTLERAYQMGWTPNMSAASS
Parameter Measured: effect of a mutation on the interaction

V50A	causing an interaction
I49D	causing an interaction
R27A	causing an interaction
C33F	causing an interaction
S67A	with no effect
R27D	with no effect
R27A;A60K	with no effect
C33F;A60K	with no effect

Shift focus to the following entry.
Any idea what effect of a mutation on the interaction was measured for N24K;A60K ?
with no effect
